- Format: physicochemical
- measurement.conditions: 1000 ppm water; C = cream
quantity.name: % Separation, 24 h

The following molecules have reported results that may help.
CCCCCCCCCC(=O)OC(CCCCCCCC(=O)OC)C(CCCCCCCC(=O)OC)S(=O)(=O)[O-].[Na+] (stereo not drawn) [C18-63, DBE C10 FA (60:40) SLA]    2.5 C, %
C=CCCCCCCCC(=O)OC(CCCCCCCC(=O)[O-])CS(=O)(=O)[O-].[Na+].[Na+] (stereo not drawn)    3%

Ask: Fill in: % Separation, 24 h of CCCCCCCCCC(=O)OC(CCCCCCCC(=O)OC)C(CCCCCCCC(=O)OC)S(=O)(=O)[O-].[Na+] (stereo not drawn) [C18-64, DBE C10 FA (75:25) SLA] is ___
Reply: 3 C, %

====

Recorded measurements of % Separation, 24 h, one per entry
- Format: physicochemical
- measurement.conditions: 34 ppm water; C = cream

Example entries and their recorded answers appear below.
CCCCCCCCCCCC(=O)OC(CCCCCCCC(=O)[O-])C(CC)S(=O)(=O)[O-].[Na+].[Na+] (stereo not shown)    5 C, %
CCCCCCCCCC(=O)OC(CCCCCCCC(=O)OC)C(CCCCCCCC(=O)OC)S(=O)(=O)[O-].[Na+] (stereo not shown) [C18-64, DBE C10 FA (75:25) SLA]    2.5 C, %
C=CCCCCCCCC(=O)OC(CCCCCCCC(=O)[O-])CS(=O)(=O)[O-].[Na+].[Na+] (stereo not shown)    3.9%

Ask: Quick one: % Separation, 24 h of CCCCCCCCCCCC(=O)OC(CCCCCCCC(=O)OC)C(CC)S(=O)(=O)[O-].[Na+] (stereo not shown) ?
Reply: 4 C, %

Ask: How about CCCCCCCCCC(=O)OC(CCCCCCCC(=O)OC)C(CCCCCCCC(=O)OC)S(=O)(=O)[O-].[Na+] (stereo not shown) [C18-63, DBE C10 FA (60:40) SLA] ?
Reply: 3 C, %

Ask: Then this molecule: CCCCCCCCCCCCCCCCCC(=O)OC(CCCCCCCC(=O)[O-])C(CC)S(=O)(=O)[O-].[Na+].[Na+] (stereo not shown)
Reply: 4.5 C, %

Ask: Same question for CCCCCCCCCC(=O)OC(CCCCCCCC(=O)OC)CS(=O)(=O)[O-].[Na+] (stereo not shown) please.
Reply: 3%

====

- Assay type: physicochemical
- measurement.conditions: 34 ppm water; O = oil separated, Tr = trace of oil
quantity.name: % Separation, 24 h, oil (O %)
Respond with the bare value in O %.

CCCCCCCCCC(=O)OC(CCCCCCCC(=O)OC)C(CCCCCCCC(=O)OC)S(=O)(=O)[O-].[Na+] (centres unmarked) [C18-63, DBE C10 FA (60:40) SLA]    1

Could you now look at the following compound, please?
Ask: State the recorded % Separation, 24 h, oil for this entry: CCCCCCCCCC(=O)OC(CCCCCCCC(=O)OC)C(CCCCCCCC(=O)OC)S(=O)(=O)[O-].[Na+] (centres unmarked) [C18-64, DBE C10 FA (75:25) SLA]
Reply: 1

====

- Format: physicochemical
- measurement.conditions: 1000 ppm water; O = oil separated, Tr = trace of oil
% Separation, 24 h, oil overview
Give the value in O % but do not write O % after it.

Would you please look over these solved cases?
CCCCCCCCCC(=O)OC(CCCCCCCC(=O)OC)C(CCCCCCCC(=O)OC)S(=O)(=O)[O-].[Na+] (centres unmarked) [C18-64, DBE C10 FA (75:25) SLA]    1
CCCCCCCCCC(=O)OC(CCCCCCCC(=O)OC)C(CCCCCCCC(=O)OC)S(=O)(=O)[O-].[Na+] (centres unmarked) [C18-63, DBE C10 FA (60:40) SLA]    1

Ask: // returns reported % Separation, 24 h, oil for input CCCCCCCCCCCC(=O)OC(CCCCCCCC(=O)OC)C(CC)S(=O)(=O)[O-].[Na+] (centres unmarked)
Reply: 1

====

Each entry below carries its recorded % Separation, 1 h.
- Format: physicochemical
- measurement.conditions: 34 ppm water; C = cream
Only the number, expressed in %, is required.

Here's what some known entries look like.
C=CCCCCCCCC(=O)OC(CCCCCCCC(=O)[O-])CS(=O)(=O)[O-].[Na+].[Na+] (stereo not shown)    3
CCCCCCCCCCCCCCCCCC(=O)OC(CCCCCCCC(=O)[O-])C(CC)S(=O)(=O)[O-].[Na+].[Na+] (stereo not shown)    3.8
CCCCCCCCCC(=O)OC(CCCCCCCC(=O)OC)C(CCCCCCCC(=O)OC)S(=O)(=O)[O-].[Na+] (stereo not shown) [C18-63, DBE C10 FA (60:40) SLA]    3.1
CCCCCCCCCCCC(=O)OC(CCCCCCCC(=O)[O-])C(CC)S(=O)(=O)[O-].[Na+].[Na+] (stereo not shown)    3.8
CCCCCCCCCC(=O)OC(CCCCCCCC(=O)OC)CS(=O)(=O)[O-].[Na+] (stereo not shown)    3

Ask: Field request: % Separation, 1 h | item: CCCCCCCCCCCC(=O)OC(CCCCCCCC(=O)OC)C(CC)S(=O)(=O)[O-].[Na+] (stereo not shown)
Reply: 3

Ask: Here is the next molecule: CCCCCCCCCC(=O)OC(CCCCCCCC(=O)OC)C(CCCCCCCC(=O)OC)S(=O)(=O)[O-].[Na+] (stereo not shown) [C18-64, DBE C10 FA (75:25) SLA]
Reply: 3.2

====

- Assay type: physicochemical
- measurement.conditions: 34 ppm water; O = oil separated, Tr = trace of oil
quantity.name: % Separation, 24 h, oil

CCCCCCCCCCCCCCCCCC(=O)OC(CCCCCCCC(=O)[O-])C(CC)S(=O)(=O)[O-].[Na+].[Na+] (stereo not drawn) [C12-36, C12 UFA C18 FA (80:20) SLA]    Tr
CCCCCCCCCCCC(=O)OC(CCCCCCCC(=O)OC)C(CC)S(=O)(=O)[O-].[Na+] (stereo not drawn) [C12-37, C12 UME C12 FA (60:40) SLA]    <1 O %
CCCCCCCCCCCC(=O)OC(CCCCCCCC(=O)[O-])C(CC)S(=O)(=O)[O-].[Na+].[Na+] (stereo not drawn) [C12-35, C12 UFA C12 FA (80:20) SLA]    Tr

Reference source for all entries: patent US9598359B2
